- measurementNotes: AUC (0 to infinity) in fasting Wistar rat at 30 mg/kg, po
- Type: ADME, organism-based
- Parameters: time infinity, dose 30 mg/kg, route oral
- assayContext: plasma
readoutType: AUC(0-inf)
Quick note: unit goes after the number.

Find the recorded AUC(0-inf) belonging to "CCO[C@@H](Cc1ccc(OCCc2nc(-c3ccc(C)s3)oc2C)cc1)C(=O)O" and report it.
456 µg·h/mL

----------
- assayTarget: Peroxisome proliferator-activated receptor alpha (Homo sapiens)
- measurementNotes: Transactivation of human PPARalpha expressed in human HepG2 cells co-transfected with PPRE3-TK-Luc by luciferase reporter gene assay relative to WY14643
- Assay type: cell-based
I'd be grateful if you could share measured Emax for these entries.
Write down the numeric answer in % and omit the unit.

Find the recorded Emax belonging to "CCO[C@@H](Cc1ccc(OCc2nc(-c3sccc3C)oc2C)cc1)C(=O)O" and report it.
106

Find the recorded Emax belonging to "CCO[C@@H](Cc1ccc(OCc2nc(-c3cccs3)oc2C)cc1)C(=O)O" and report it.
134

Find the recorded Emax belonging to "CCO[C@@H](Cc1ccc(OCc2nc(-c3ccsc3)oc2C)cc1)C(=O)O" and report it.
147

Find the recorded Emax belonging to "CCO[C@@H](Cc1ccc(OCc2nc(-c3ccc(-c4ccccc4)s3)oc2C)cc1)C(=O)O" and report it.
93

Find the recorded Emax belonging to "CCO[C@@H](Cc1ccc(OCCc2nc(-c3ccc(C)s3)oc2C)cc1)C(=O)O" and report it.
116

Find the recorded Emax belonging to "CCO[C@@H](Cc1ccc(OCc2nc(-c3ccc(C)s3)oc2C)cc1)C(=O)O" and report it.
151

Find the recorded Emax belonging to "CCO[C@@H](Cc1ccc(OCCc2nc(-c3ccsc3)oc2C)cc1)C(=O)O" and report it.
114

Find the recorded Emax belonging to "CCO[C@@H](Cc1ccc(OCCc2nc(-c3cccs3)oc2C)cc1)C(=O)O" and report it.
126

Find the recorded Emax belonging to "CCO[C@@H](Cc1ccc(OCCc2nc(-c3sccc3C)oc2C)cc1)C(=O)O" and report it.
96
